Each record here notes measured Ratio of activation intensity, PathHunter.
Biological target: IGF-1 receptor on the cells of the PathHunter IGF1R Functional Assay (DiscoverX) (UniProt P08069 31-1367)
Sequence (P08069 31-1367): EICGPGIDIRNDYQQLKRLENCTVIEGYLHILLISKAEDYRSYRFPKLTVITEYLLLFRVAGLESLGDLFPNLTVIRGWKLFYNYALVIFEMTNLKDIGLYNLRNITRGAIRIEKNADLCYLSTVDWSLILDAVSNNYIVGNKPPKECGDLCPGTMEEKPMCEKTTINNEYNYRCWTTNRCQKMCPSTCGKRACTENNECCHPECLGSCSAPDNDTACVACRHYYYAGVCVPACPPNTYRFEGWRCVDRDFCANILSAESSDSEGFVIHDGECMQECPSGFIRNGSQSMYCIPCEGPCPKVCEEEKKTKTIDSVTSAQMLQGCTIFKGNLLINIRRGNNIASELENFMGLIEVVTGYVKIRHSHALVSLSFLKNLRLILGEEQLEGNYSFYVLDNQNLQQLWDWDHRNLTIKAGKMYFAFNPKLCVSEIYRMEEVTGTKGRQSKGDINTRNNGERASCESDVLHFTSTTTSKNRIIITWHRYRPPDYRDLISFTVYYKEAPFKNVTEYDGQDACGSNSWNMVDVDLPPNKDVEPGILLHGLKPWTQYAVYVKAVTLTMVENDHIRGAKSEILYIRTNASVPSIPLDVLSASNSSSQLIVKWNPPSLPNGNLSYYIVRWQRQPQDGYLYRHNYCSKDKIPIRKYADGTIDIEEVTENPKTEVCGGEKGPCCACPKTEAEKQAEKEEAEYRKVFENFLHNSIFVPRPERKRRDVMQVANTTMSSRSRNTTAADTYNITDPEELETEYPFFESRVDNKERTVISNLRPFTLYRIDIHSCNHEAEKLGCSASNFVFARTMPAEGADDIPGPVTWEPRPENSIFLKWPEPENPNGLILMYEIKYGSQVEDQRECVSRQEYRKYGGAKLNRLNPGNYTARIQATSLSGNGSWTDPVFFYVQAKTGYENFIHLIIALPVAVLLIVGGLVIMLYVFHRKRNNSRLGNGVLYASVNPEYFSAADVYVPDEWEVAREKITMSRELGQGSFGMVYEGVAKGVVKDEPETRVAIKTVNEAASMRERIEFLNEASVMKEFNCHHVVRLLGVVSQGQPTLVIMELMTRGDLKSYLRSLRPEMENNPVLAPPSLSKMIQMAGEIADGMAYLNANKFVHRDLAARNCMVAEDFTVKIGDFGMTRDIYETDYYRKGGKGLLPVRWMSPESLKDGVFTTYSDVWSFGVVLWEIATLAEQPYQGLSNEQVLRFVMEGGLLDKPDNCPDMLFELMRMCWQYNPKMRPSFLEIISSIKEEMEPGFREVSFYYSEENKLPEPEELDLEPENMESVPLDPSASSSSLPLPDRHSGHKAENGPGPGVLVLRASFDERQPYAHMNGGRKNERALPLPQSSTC
Experiment: cell-based or functional assay

Known results for binders:
binder: FW1_var1 antibody (antibody, V domains shown) VH: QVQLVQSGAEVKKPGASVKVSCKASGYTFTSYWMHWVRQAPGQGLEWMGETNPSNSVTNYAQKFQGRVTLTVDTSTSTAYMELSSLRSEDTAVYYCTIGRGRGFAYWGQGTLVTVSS VL: DIQMTQSPSSVSASVGDRVTITCRASQNINFWLSWCQQKPGKIPKLLIYKASNLHTGVPSRFSGSGSGTDFTLTISSLQPEDFATYYCLQGQSYPYTFGGGTKLEIK
result: 0.74 relative to IGF11-16

binder: FW2_var2 antibody (antibody, V domains shown) VH: QVQLVQSGAEVKKPGSSVKVSCKASGYTFTSYWMHWVRQAPGQGLEWMGETNPSNSVTNYAQKFQGRVTLTVDKSTSTAYMELSSLRSEDTAVYYCTIGRGRGFAYWGQGTLVTVSS VL: DIQMTQSPSSLSASVGDRVTITCRASQNINFWLSWYQQKPGKIPKLLIYKASNLHTGVPSRFSGSGSGTDFTLTISSLQPEDVATYYCLQGQSYPYTFGGGTKLEIK
result: 0.61 relative to IGF11-16

**Query** Note Ratio of activation intensity, PathHunter for the binder shown: FW1_var10 antibody (antibody, V domains shown) VH: QVQLVQSGAEVKKPGASVKVSCKASGYTFTSYWMHWVRQAPGQGLEWMGETNPSNSVTNYAQKFQGRVTLTVDTSTSTAYMELSSLRSEDTATYYCTIGRGRGFAYWGQGTLVTVSS VL: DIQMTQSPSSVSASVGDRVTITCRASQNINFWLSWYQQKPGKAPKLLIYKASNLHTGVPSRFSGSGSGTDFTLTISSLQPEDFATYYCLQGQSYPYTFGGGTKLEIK
**Result** 0.62 relative to IGF11-16
